Below, each of the binders is paired with its reported EC50 value.
Biological target: huFXII-his (human) (UniProt P00748)
Sequence (P00748 20-615, form in doubt): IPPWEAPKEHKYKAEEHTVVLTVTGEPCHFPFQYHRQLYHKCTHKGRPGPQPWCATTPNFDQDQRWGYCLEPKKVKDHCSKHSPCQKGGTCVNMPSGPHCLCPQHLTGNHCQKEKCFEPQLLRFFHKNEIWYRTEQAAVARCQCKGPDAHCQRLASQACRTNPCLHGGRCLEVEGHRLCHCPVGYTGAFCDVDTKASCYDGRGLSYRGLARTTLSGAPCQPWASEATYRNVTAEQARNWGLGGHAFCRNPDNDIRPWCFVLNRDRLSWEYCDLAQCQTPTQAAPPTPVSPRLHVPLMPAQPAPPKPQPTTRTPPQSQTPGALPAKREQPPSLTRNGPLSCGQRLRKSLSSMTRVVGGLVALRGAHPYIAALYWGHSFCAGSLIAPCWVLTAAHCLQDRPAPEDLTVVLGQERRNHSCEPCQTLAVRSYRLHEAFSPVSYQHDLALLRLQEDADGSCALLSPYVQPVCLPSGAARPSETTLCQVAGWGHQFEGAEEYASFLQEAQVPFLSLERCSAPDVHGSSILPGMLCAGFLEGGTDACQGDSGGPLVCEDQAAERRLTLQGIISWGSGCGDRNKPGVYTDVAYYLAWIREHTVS
Experiment: ELISA, huFXII-his coated at 1 µg/ml, HRP anti-human secondary, OD450
Your answer should be a plain number; it is taken to be in µg/mL.

See these solved cases before continuing.
FX-Y17-Y9 (antibody, V domains shown) VH: EVQLLESGGGLVQPGGSLRLSCAGSGFSFGSQTMSWVRQAPGKGLEWVSSISVISGRKYYADSVKGRFTISRDNSKNTLYLQMNSLRAEDTAVYYCAKSHAFDVWGQGTMVTVSS VL: EIVLTQSPATLSVSPGERATLSCRASQSVYSALAWYQQKPGQAPRLLIYGASTRATGIPARFSGSGSGTEFTLTISSLQSEDFAVYYCQQYHKWPLSFGGGTKVEIK	0.228
FX-Y17-Y12 (antibody, V domains shown) VH: EVQLLESGGGLVQPGGSLRLSCAGSGFSFGSQTMSWVRQAPGKGLEWVSSISVISGRTYYADSVKGRFTISRDNSKNTLYLQMNSLRAEDTAVYYCTKWHAFDVWGQGTMVTVSS VL: EIVLTQSPATLSVSPGERATLSCRASQSLYSHLAWYQQKPGQAPRLLIYGASTRATGIPARFSGSGSGTEFTLTISSLQSEDFAVYYCQQYKKWPLSFGGGTKVEIK	0.364

Look up EC50: FX-Y17-Y14 (antibody, V domains shown) VH: EVQLLESGGGLVQPGGSLRLSCAGSGFSFGSQTMSWVRQAPGKGLEWVSSISHISGRTYYADSVKGRFTISRDNSKNTLYLQMNSLRAEDTAVYYCTKSHRFDVWGQGTMVTVSS VL: EIVLTQSPATLSVSPGERATLSCRASQSVYSALAWYQQKPGQAPRLLIYGASTRATGIPARFSGSGSGTEFTLTISSLQSEDFAVYYCQQNNKWPLSFGGGTKVEIK
0.14

All values here come from patent EP4729546A1.
